System: Yap1 mRNA
Assay Info: Dose-dependent inhibition of human Yap1 in A-431 cells (Example 8, 10,000 cells per well, RTS4814)
Format: cell-based
Particulars: 500.0 nM; A-431 cells, 10,000 cells per well, free uptake, approximately 48 hours, RTS4814
Strand notation (5' to 3'): a small letter for the sugar, then the base; units joined by * are phosphorothioate-linked, units joined directly phosphodiester-linked; [ ] holds rarer units or linkages, { } end groups; capitals alone tell only the bases. k = constrained ethyl (cEt); [5mC] = 5-methylcytosine; d = 2'-deoxy (DNA)
Observed Property: Yap1 mRNA, % UTC (% UTC)

{"Substance": "1075813 (kA*k[5mC]*kT*dA*dA*dT*dA*dT*dG*d[5mC]*dA*dA*d[5mC]*kT*k[5mC]*kT; antisense) [compound 1075813]", "Assay Value": 11}
{"Substance": "1075081 (antisense kG*kA*kT*dT*dA*d[5mC]*dA*dA*dA*dG*dA*d[5mC]*dA*kG*k[5mC]*k[5mC]) [compound 1075081]", "Assay Value": 22}
{"Substance": "1074535 (kG*kT*kA*dA*dT*dA*dG*d[5mC]*dT*d[5mC]*dT*dT*dT*k[5mC]*kT*kA; antisense) [compound 1074535]", "Assay Value": 7}
{"Substance": "1076015 (kA*kT*kT*dT*dA*dG*dT*dT*dG*dG*dT*dT*dG*kT*kT*kA; antisense) [compound 1076015]", "Assay Value": 15}

* * *

Assay Info: Cynomolgus monkey tolerability, hematology (Example 34)
Type: in vivo, cynomolgus monkeys
Particulars: cynomolgus monkey, in vivo, sc, 35 mg/kg
Method: To evaluate any effect of Ionis oligonucleotides in cynomolgus monkeys on hematologic parameters, blood samples of approximately 0.5 mL of blood was collected from each of the available study animals on day 44. The samples were collected in tubes containing K2-EDTA. […]
Reported EOS values follow for various substances

{"Substance": "1198439 (AGTGTATGTCAGAAGA; sugar, 5-methylcytosine, phosphorothioate modifications, further chemistry not given here) [compound 1198439]", "Reading Unit": "%", "EOS": 1.5}
{"Substance": "1198605 (GTAATATTGCAATCTG; modified gapmer, further chemistry not given here) [compound 1198605]", "Reading Unit": "%", "EOS": 0.8}
{"Substance": "1197270 (TTAAAGTGTATGTCAG; cEt gapmer with 2'-OMe nucleoside, phosphorothioate, further chemistry not given here) [compound 1197270]", "Reading Unit": "%", "EOS": 2.7}
{"Substance": "1198623 (CTAAGTAAGGTTTCCC; modified gapmer, further chemistry not given here) [compound 1198623]", "Reading Unit": "%", "EOS": 0.8}

* * *

Test system: Yap1 mRNA
Assay Info: Antisense inhibition of human Yap1 in A-431 cells by cEt gapmers, single dose (Example 3, RTS36584)
Assay type: cell-based
Particulars: Table 27; Yap1 mRNA by 3-10-3 cEt gapmers targeting SEQ ID NO.: 1, and 2; percent of untreated control
Strand notation (5' to 3'): a small letter for the sugar, then the base; units joined by * are phosphorothioate-linked, units joined directly phosphodiester-linked; [ ] holds rarer units or linkages, { } end groups; capitals alone tell only the bases. k = constrained ethyl (cEt); [5mC] = 5-methylcytosine; d = 2'-deoxy (DNA)
Classify by measured YAP1 (% UTC): 1 (yes) if it is equal to or exceeds 30 % UTC, 0 (no) if it is smaller.

{"Substance": "1075213 (kA*k[5mC]*kA*dA*dT*dA*dA*dA*dG*dG*dG*dT*d[5mC]*k[5mC]*kT*kA; antisense) [compound 1075213]", "Test Target": "Yap1 mRNA", "Label Value": "1 (yes)"}
{"Substance": "1076429 (k[5mC]*kA*kT*dT*dA*d[5mC]*dA*dA*dG*d[5mC]*dA*dT*dA*kG*kG*k[5mC]; antisense) [compound 1076429]", "Test Target": "Yap1 mRNA", "Label Value": "0 (no)"}
{"Substance": "1075757 (k[5mC]*kT*kT*dA*dA*dT*dA*d[5mC]*dA*dT*dT*dA*dT*kT*k[5mC]*k[5mC]; antisense) [compound 1075757]", "Test Target": "Yap1 mRNA", "Label Value": "0 (no)"}
{"Substance": "1076077 (kG*kG*kA*dT*dT*dA*dA*dA*dG*dT*dT*dT*dT*k[5mC]*kA*k[5mC]; antisense) [compound 1076077]", "Test Target": "Yap1 mRNA", "Label Value": "0 (no)"}
{"Substance": "1074925 (antisense kG*k[5mC]*k[5mC]*dT*dG*d[5mC]*dA*dA*dA*dT*dA*dG*dG*kA*kG*kA) [compound 1074925]", "Test Target": "Yap1 mRNA", "Label Value": "1 (yes)"}
{"Substance": "1075693 (k[5mC]*kA*kT*dT*dA*dA*dA*dA*dG*dT*dT*dG*dG*kG*kT*kT; antisense) [compound 1075693]", "Test Target": "Yap1 mRNA", "Label Value": "1 (yes)"}

* * *

System: Yap1 mRNA
Assay Info: Antisense inhibition of human Yap1 in A-431 cells by cEt gapmers, single dose (Example 2, RTS4814)
Type: cell-based
Particulars: Table 21; Yap1 mRNA, percent of untreated control; 3-10-3 cEt gapmers targeting SEQ ID NO.: 1 and 2
Experimental: Modified oligonucleotides were designed to target a Yap1 nucleic acid and were tested for their effect on Yap1 mRNA level in vitro. The modified oligonucleotides were tested in a series of experiments that had similar culture conditions. […] After a treatment period of approximately 48 hours, RNA was isolated from the cells and Yap1 mRNA levels were measured by quantitative real-time RTPCR. […] Yap1 mRNA levels were normalized to total RNA content, as measured by RIBOGREEN®. […]
Strand notation (5' to 3'): a small letter for the sugar, then the base; units joined by * are phosphorothioate-linked, units joined directly phosphodiester-linked; [ ] holds rarer units or linkages, { } end groups; capitals alone tell only the bases. k = constrained ethyl (cEt); [5mC] = 5-methylcytosine; d = 2'-deoxy (DNA)
Reported YAP1 (% UTC) values follow for various substances
Observed Property: YAP1 (% UTC)

{"Substance": "1075111 (antisense kT*kA*kG*dG*dA*dA*dT*dA*dT*dG*dG*dG*dT*kA*kG*kT) [Compound 1075111]", "Test Target": "Yap1 mRNA", "Reading Unit": "% UTC", "Assay Value": 5}
{"Substance": "1076135 (k[5mC]*kA*kT*dA*dA*dT*dT*dG*dA*d[5mC]*dA*dG*dG*kT*kA*kT; antisense) [Compound 1076135]", "Test Target": "Yap1 mRNA", "Reading Unit": "% UTC", "Assay Value": 14}
{"Substance": "1074663 (antisense k[5mC]*kA*kT*dT*d[5mC]*dT*dA*dG*dG*dT*dA*dG*dA*kA*kT*kT) [Compound 1074663]", "Test Target": "Yap1 mRNA", "Reading Unit": "% UTC", "Assay Value": 79}
{"Substance": "1075271 (antisense kG*kA*kT*dG*dT*dG*dA*dT*d[5mC]*dT*dG*dT*dG*kA*kG*kA) [Compound 1075271]", "Test Target": "Yap1 mRNA", "Reading Unit": "% UTC", "Assay Value": 11}

* * *

Reported % UTC (Yap1 mRNA) values follow for various substances
System: Yap1 mRNA
Assay Info: Dose-dependent inhibition of human Yap1 in SNU-449 cells (Example 9, RTS36584)
Format: cell-based
Particulars: 125.0 nM, free uptake, approximately 48 hours
Strand notation (5' to 3'): a small letter for the sugar, then the base; units joined by * are phosphorothioate-linked, units joined directly phosphodiester-linked; [ ] holds rarer units or linkages, { } end groups; capitals alone tell only the bases. e = 2'-O-(2-methoxyethyl) (MOE); k = constrained ethyl (cEt); [5mC] = 5-methylcytosine; d = 2'-deoxy (DNA); m = 2'-O-methyl
Observed Property: % UTC (Yap1 mRNA) (% UTC)

{"Substance": "1198900 (kA*kG*dA*dG*dT*dA*dT*dG*dT*dG*dG*k[5mC]*dA*kA*dT*kA; antisense) [compound 1198900]", "Assay Value": 36}
{"Substance": "1198499 (kT*kT*dT*dA*dG*dG*dA*dT*dG*d[5mC]*dA*eT*kG*eG*kT*eT) [compound 1198499]", "Assay Value": 42}
{"Substance": "1198918 (kG*k[5mC]*dA*d[5mC]*dT*dT*dT*dT*dA*d[5mC]*dA*kT*dT*kA*dG*kG) [compound 1198918]", "Assay Value": 33}
{"Substance": "1200785 (kA*kT*kT*dG*dT*mC*dT*d[5mC]*dA*dT*dG*d[5mC]*d[5mC]*kT*kT*kA; antisense) [compound 1200785]", "Assay Value": 73}
{"Substance": "1198905 (kA*kT*dA*dT*dT*dA*dG*dA*dG*dT*dA*kT*dG*kT*dG*kG; antisense) [compound 1198905]", "Assay Value": 43}
{"Substance": "1198510 (k[5mC]*kT*d[5mC]*dT*dT*dA*dT*dA*dT*dG*dG*eT*kT*eT*kT*eG; antisense) [compound 1198510]", "Assay Value": 44}
{"Substance": "1198422 (k[5mC]*dT*dT*dA*dT*dA*dT*dG*dG*dT*dT*kT*eT*kG*eT*kG) [compound 1198422]", "Assay Value": 60}
{"Substance": "1200858 (kA*kA*kG*dT*dG*mU*dA*dT*dG*dT*d[5mC]*dA*dG*kA*kA*kG; antisense) [compound 1200858]", "Assay Value": 39}
{"Substance": "1198460 (kG*kA*dA*dA*dT*dT*dG*dT*d[5mC]*dT*d[5mC]*eA*kT*eG*k[5mC]*e[5mC]; antisense) [compound 1198460]", "Assay Value": 49}
{"Substance": "1198356 (kT*kA*kA*dA*dG*dT*dG*dT*dA*dT*dG*dT*k[5mC]*eA*kG*eA; antisense) [compound 1198356]", "Assay Value": 30}
{"Substance": "1200794 (kA*kG*kA*dG*dT*mA*dT*dG*dT*dG*dG*d[5mC]*dA*kA*kT*kA; antisense) [compound 1200794]", "Assay Value": 59}
{"Substance": "1198438 (kT*dG*dT*dA*dT*dG*dT*d[5mC]*dA*dG*dA*kA*eG*kA*eG*kT) [compound 1198438]", "Assay Value": 28}
{"Substance": "1198641 (kA*kT*dT*dA*dG*dA*dG*dT*dA*dT*dG*dT*kG*eG*k[5mC]*eA; antisense) [compound 1198641]", "Assay Value": 29}

Source of measurements: patent US11214803B2
